meta.source: patent US20250026849A1

target desc: T1, CD123 (Homo sapiens (Human), UniProt P26951 19-305, limits assumed)
T1 construct: The CD123 construct used in the ELISA is not described; also called CD123-Signal
T1 sequence: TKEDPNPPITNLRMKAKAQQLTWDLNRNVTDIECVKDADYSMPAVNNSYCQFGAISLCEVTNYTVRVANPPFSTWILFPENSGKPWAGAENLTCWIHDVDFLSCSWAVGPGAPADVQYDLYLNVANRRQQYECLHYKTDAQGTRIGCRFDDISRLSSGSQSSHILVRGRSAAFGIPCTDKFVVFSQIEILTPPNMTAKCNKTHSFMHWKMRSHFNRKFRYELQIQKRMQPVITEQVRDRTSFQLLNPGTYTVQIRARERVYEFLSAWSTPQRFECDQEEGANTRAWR
test description: ELISA
Set-up: unit not given here

>  <binder>
D domain of SEQ ID NO: 589 (designed binder) MGSWREFDQRLWAIDWRLEALGGSEAELAMFEWMIATFEDDLQWYKGKGNPEVEALYREAFAIDWELDAYRHN

>  <ELISA_avg>
3.4

$$$$
>  <binder>
D domain of SEQ ID NO: 432 (designed binder) MGSWFEFWERLDAIEWRLWALGGSEAELAAFEKEIAAFESELQAYKGKGNPEVEELRSTAADIRRYLQAYRHN

>  <ELISA_avg>
3.4

$$$$
>  <binder>
D domain of SEQ ID NO: 525 (designed binder) MGSWVLFKEELAYIKFELEALGGSEAELALFENVIAIFESNLQNYKGKGNPEVEALRKEAAAIRDELQAYRHN

>  <ELISA_avg>
3.5

$$$$
